system: HOP-92 NSCLC; test: NCI-60 one-dose screen, 48 h (100 = growth as untreated, 0 = no growth, -100 = all killed); details: 10 µM unless noted
The panel holds about 83,000 compounds, 20% with a hit somewhere; the sample as a whole holds those more often.
With a cut-off of 30%, any growth strictly below it is called Y; any growth meeting it or above is called N.

Here's what some known entries look like.
mol | label value
COc1cc(C)cc2oc3oc(=O)c(-c4nc5ccccc5s4)cc3c(=O)c12 | N
O=[N+]([O-])c1ccc(O)c(-c2nc3ccccc3s2)c1 | Y
COC(=O)c1cc(O)c2c(c1C(=O)OC)C[C@H]1[C@@H]3CC=C4C[C@@H](O)CC[C@]4(C)[C@H]3CC[C@]21C | Y
CCCN1CC(c2ccc(OC)c(OC)c2)=C(c2cn(C(=O)OCC)c3ccccc23)C1=O | Y

Would you kindly look at the next entry?
Hello, is growth of the following compound strictly smaller than 30%? "CCOC(=O)c1cc(C#N)n2ncc3ccccc3c12"
N

* * *

Each entry below lists one item and its recorded growth value.
tested on: SNB-75 CNS; experiment: NCI-60 one-dose screen, 48 h (100 = growth as untreated, 0 = no growth, -100 = all killed); conditions: 10 µM unless noted
The panel holds about 83,000 compounds, 20% with a hit somewhere; the sample as a whole holds those more often. Active and inactive are the calls of the source. The calls were made as follows: active = growth percent below 10; inactive = the rest.

compound | growth
COc1ccc(CC(C#N)c2ccc(Cl)cc2)cc1 (stereo not given) | 75.9% (inactive)

Need growth of "Cn1ncc2c(Nc3ccc(O)cc3)nc(Cl)nc21" , thanks.
95% (inactive)

Need growth of N#CC1C(=O)NC(c2ccccc2[N+](=O)[O-])c2sc3c(F)cccc3c21 (stereo not given) , thanks.
82.6% (inactive)

Need growth of CCCCCCCCN(CCCCCCCC)CC(O)c1ccc(Cl)c(C)c1Cl (stereo not given) , thanks.
86.8% (inactive)

Need growth of "O=S(=O)(NCCCNc1nccc(-c2c(-c3cccc(F)c3)nc3occn23)n1)c1cccc2ccccc12" , thanks.
62.5% (inactive)

Need growth of "Nc1cccc2c1C(=O)c1cccc(NC(=O)c3ccccc3)c1C2=O" , thanks.
6% (active)

Need growth of "O=C(NCCCCCCCNC(=O)OCc1ccc2c(Cl)cc(Cl)c(O)c2n1)OCc1ccc2c(Cl)cc(Cl)c(O)c2n1" , thanks.
-92.4% (active)

Need growth of "O=C(CSc1nccc(Nc2ccc(S(=O)(=O)Nc3ccccn3)cc2)n1)c1ccc(Cl)cc1" , thanks.
101% (inactive)

Need growth of "CCN(CC)CCCCCCNc1cccc2cc(Br)cnc12" , thanks.
92.2% (inactive)

Need growth of "C#C[C@]1(O)CC[C@H]2[C@@H]3CC=C4c5nc(Nc6ccc(OC)cc6OC)sc5CC[C@]4(C)[C@H]3CC[C@@]21C" , thanks.
-53.6% (active)

Need growth of N#Cc1c(Cl)nc(SCC2CO2)nc1-c1ccccc1 (stereo not given) , thanks.
95.6% (inactive)

Need growth of "Cn1cc(-c2noc(-c3cn(C)c4ncccc34)n2)c2cc(Cl)ccc21" , thanks.
101% (inactive)

Need growth of "O=C(NNc1ccc(-c2ccccc2)nn1)c1ccccc1" , thanks.
71% (inactive)

Need growth of "CN(C)c1cc(NN=C(c2ccc(O)cc2)c2ccc(O)cc2)c([N+](=O)[O-])cc1[N+](=O)[O-]" , thanks.
98% (inactive)

Need growth of "CCCSc1nc(N)nc2nc[nH]c12" , thanks.
108% (inactive)
